Parameter: protein stability index. Scope: all listed entries.
- ASSAY_REMARKS: protein stability index of a GFP-peptide fusion (GPS, HEK-293T) (PSI 1-6); higher = more stable;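 note: 24-mer peptide tiles fused after GFP, lentivirally expressed, FACS-sorted into six equal bins by GFP/DsRed ratio, decoded by Illumina sequencing, PSI is the read-weighted mean bin number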
- ASSAY_CONDITIONS: treatment: MLN4924 1 uM, 8 h; c terminus: a fixed tail appended
ENDPOINT_LABEL: protein stability index

- SEQ_TEXT: "RPSMASELMPSSRLWSLSYTKLPS [SLC25A39]"
  ENDPOINT_LABEL: "protein stability index"
  MEAS_VALUE: 2.92
- SEQ_TEXT: "AIGALLVCYHYYADWFMSLGVGLL [TMEM40]"
  ENDPOINT_LABEL: "protein stability index"
  MEAS_VALUE: 2.86
- SEQ_TEXT: "VIAKPSELTSVTAWMLCKLLDKAG [ALDH8A1]"
  ENDPOINT_LABEL: "protein stability index"
  MEAS_VALUE: 2.3
- SEQ_TEXT: "LLQQNKSIQSLTLEWNSLGTWDDA [LRRC45]"
  ENDPOINT_LABEL: "protein stability index"
  MEAS_VALUE: 2.64
- SEQ_TEXT: "AEKKQELDKLRNEWASHTAALTNK [SASS6]"
  ENDPOINT_LABEL: "protein stability index"
  MEAS_VALUE: 4.79
- SEQ_TEXT: "VGSVHVDSGASAITRESHTHRDRP [CSNK1G1]"
  ENDPOINT_LABEL: "protein stability index"
  MEAS_VALUE: 4.66
- SEQ_TEXT: "AERLFENQLVGPESIAHIGDVMFT [APMAP]"
  ENDPOINT_LABEL: "protein stability index"
  MEAS_VALUE: 3.16
- SEQ_TEXT: "NLISPVRNGAVRRFGQTIQSFTLR [NET1]"
  ENDPOINT_LABEL: "protein stability index"
  MEAS_VALUE: 2.7
- SEQ_TEXT: "TILNVRDPTGASIALFTARLHHPH [PTPN9]"
  ENDPOINT_LABEL: "protein stability index"
  MEAS_VALUE: 1.89
- SEQ_TEXT: "LSGGLGAGSCRLGSAGGLGSTLGG [KRT17]"
  ENDPOINT_LABEL: "protein stability index"
  MEAS_VALUE: 2.37
- SEQ_TEXT: "TLEEIQKHNHSKSTWLILHHKVYD [CYB5A]"
  ENDPOINT_LABEL: "protein stability index"
  MEAS_VALUE: 2.58
- SEQ_TEXT: "GAQELLEFTIRDLQRLGELQSELA [INTS4]"
  ENDPOINT_LABEL: "protein stability index"
  MEAS_VALUE: 2.79
- SEQ_TEXT: "LVKNLKDTLGLGKTRRKTSARDAS [NCK2]"
  ENDPOINT_LABEL: "protein stability index"
  MEAS_VALUE: 3.35
- SEQ_TEXT: "HHAKDSEGVEIMLGVCASGLLIYR [EPB41L3]"
  ENDPOINT_LABEL: "protein stability index"
  MEAS_VALUE: 2.14
- SEQ_TEXT: "NNSNLQRMGSSESTDSGFCLDSPG [CDC25A]"
  ENDPOINT_LABEL: "protein stability index"
  MEAS_VALUE: 4.8
- SEQ_TEXT: "AKPGSTEKGLPLRKTHVLLGRSHD [MFSD9]"
  ENDPOINT_LABEL: "protein stability index"
  MEAS_VALUE: 3.86
- SEQ_TEXT: "KVIYDFIEKTGGVEAVKNELRRQA [WASL]"
  ENDPOINT_LABEL: "protein stability index"
  MEAS_VALUE: 2.28
- SEQ_TEXT: "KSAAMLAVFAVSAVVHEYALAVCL [SOAT1]"
  ENDPOINT_LABEL: "protein stability index"
  MEAS_VALUE: 3.32
- SEQ_TEXT: "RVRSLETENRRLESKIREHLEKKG [KRT18]"
  ENDPOINT_LABEL: "protein stability index"
  MEAS_VALUE: 4.99
- SEQ_TEXT: "YFYPRGGGSGGGAGGAGGGVTEEQ [JUNB]"
  ENDPOINT_LABEL: "protein stability index"
  MEAS_VALUE: 4.89
- SEQ_TEXT: "RMAAPRAEALFDFTGNSKLELNFK [NCF4]"
  ENDPOINT_LABEL: "protein stability index"
  MEAS_VALUE: 3.46
- SEQ_TEXT: "TKFEVRLLRDPADASEAHESSSRG [CHGB]"
  ENDPOINT_LABEL: "protein stability index"
  MEAS_VALUE: 4.64
- SEQ_TEXT: "PPLSGRSTPKLTSRSAAQDLDRMG [PPFIA4]"
  ENDPOINT_LABEL: "protein stability index"
  MEAS_VALUE: 4.62
- SEQ_TEXT: "SALGPNVTKITLESFLAWKKRKRQ [ZC3H15]"
  ENDPOINT_LABEL: "protein stability index"
  MEAS_VALUE: 3.14
- SEQ_TEXT: "SDGVYAIVATLLILDICEDNVPDP [TMEM175]"
  ENDPOINT_LABEL: "protein stability index"
  MEAS_VALUE: 2.84
- SEQ_TEXT: "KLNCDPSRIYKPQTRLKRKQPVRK [DFFB]"
  ENDPOINT_LABEL: "protein stability index"
  MEAS_VALUE: 3.71
- SEQ_TEXT: "FEYRGEQHKTCMLNATSKFMEFYQ [EDNRA]"
  ENDPOINT_LABEL: "protein stability index"
  MEAS_VALUE: 1.89
